Reported koff values are given for each entry in this list.
EXPERIMENTAL SYSTEM: Human rhB7-H3 (human) (UniProt Q5ZPR3)
EXPERIMENT SUMMARY: SPR (Biacore 8K/T200), purified IgG as ligand, rhB7-H3 as analyte
Number in s⁻¹, nothing else.

Some solved cases for reference:
{"BINDER": "MIL33B chimeric antibody (full-length IgG) (antibody, V domains shown) VH: EVQLQQSGPELVKPGASVKMSCKASGYTFTSYVMHWVRQSPGQGLEGIGYINSYSDGTKYNEKFKGKATLTSDKSSSTAYMELSGLTSEDSAVYYCARWGGLGNGAMDYWGQGTSVTVSS VL: QIVLTQSPAIMSASPGEKVTMTCSVSSSVNYMHWYQQKSGTSPKRWIYDTSKLASGVPARFSASGSGTSYSLTISSMEAEDAATYYCQQWTSNPLTFGAGTKLELKR", "koff / s⁻¹": "7.16e-05"}
{"BINDER": "MIL33B-H3-hIgG1 (antibody, V domains shown) VH: QVQLVQSGAEVKKPGASVKVSCKASGYTFTSYVMHWVRQAPGQRLEWMGYINSYSDGTKYNEKFKGRVTITRDTSASTAYMELSSLRSEDTAVYYCARWGGLGNGAMDYWGQGTLVTVSS VL: EIVLTQSPATLSLSPGERATLSCSVSSSVNYMHWYQQKPGQAPRRLIYDTSKLASGIPARFSGSGSGTDYTLTISSLEPEDFAVYYCQQWTSNPLTFGQGTKLEIK", "koff / s⁻¹": 0.000117}
{"BINDER": "MIL33B-H1-hIgG1 (antibody, V domains shown) VH: QVQLVQSGAEVKKPGASVKVSCKASGYTFTSYVMHWVRQAPGQRLEWMGYINSYSDGTKYNEKFKGRVTITSDTSASTAYMELSSLRSEDTAVYYCARWGGLGNGAMDYWGQGTLVTVSS VL: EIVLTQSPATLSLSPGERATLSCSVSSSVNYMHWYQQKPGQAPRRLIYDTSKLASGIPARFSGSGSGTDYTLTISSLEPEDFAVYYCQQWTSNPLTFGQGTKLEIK", "koff / s⁻¹": 0.000139}

Proceed to the following item.
Query koff for MIL33B-H2-hIgG1 (antibody, V domains shown) VH: QVQLVQSGAEVKKPGASVKVSCKASGYTFTSYVMHWVRQAPGQRLEWMGYINSYSDGTKYNEKFKGRATITRDTSASTAYMELSSLRSEDTAVYYCARWGGLGNGAMDYWGQGTLVTVSS VL: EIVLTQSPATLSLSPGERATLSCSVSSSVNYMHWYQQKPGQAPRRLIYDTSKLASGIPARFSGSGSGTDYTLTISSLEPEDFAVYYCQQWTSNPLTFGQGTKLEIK
0.000105
